Data origin: ChEMBL document CHEMBL1150202

Entries and their IC50 values follow.
Experiment: Cytotoxicity against human HCT/VP35 cells
Type: functional, cell-based

{"COMPOUND": "CC(=O)O[C@H]1C(=O)[C@@]2(C)[C@H]([C@H](OC(=O)c3ccccc3)[C@]3(O)C[C@H](OC(=O)[C@H](OC(=O)CCC(=O)NCCS(=O)(=O)[O-])[C@@H](NC(=O)c4ccccc4)c4ccccc4)C(C)=C1C3(C)C)[C@]1(OC(C)=O)CO[C@@H]1C[C@@H]2O.[Na+]", "INEQUALITY OPERATOR": "=", "IC50, µg/mL": 0.03}
{"COMPOUND": "CC(=O)O[C@H]1C(=O)[C@@]2(C)[C@H]([C@H](OC(=O)c3ccccc3)[C@]3(O)C[C@H](OC(=O)[C@H](OC(=O)CCC(=O)NCCCS(=O)(=O)[O-])[C@@H](NC(=O)c4ccccc4)c4ccccc4)C(C)=C1C3(C)C)[C@]1(OC(C)=O)CO[C@@H]1C[C@@H]2O.[Na+]", "INEQUALITY OPERATOR": "=", "IC50, µg/mL": 0.04}
{"COMPOUND": "CC(=O)O[C@H]1C(=O)[C@@]2(C)[C@H]([C@H](OC(=O)c3ccccc3)[C@]3(O)C[C@H](OC(=O)[C@H](OC(=O)CCS(=O)(=O)[O-])[C@@H](NC(=O)c4ccccc4)c4ccccc4)C(C)=C1C3(C)C)[C@]1(OC(C)=O)CO[C@@H]1C[C@@H]2O.[Na+]", "INEQUALITY OPERATOR": "=", "IC50, µg/mL": 0.05}
{"COMPOUND": "CC(=O)O[C@H]1C(=O)[C@@]2(C)[C@H]([C@H](OC(=O)c3ccccc3)[C@]3(O)C[C@H](OC(=O)[C@H](O)[C@@H](NC(=O)c4ccccc4)c4ccccc4)C(C)=C1C3(C)C)[C@]1(OC(C)=O)CO[C@@H]1C[C@@H]2O [PACLITAXEL]", "INEQUALITY OPERATOR": "<", "IC50, µg/mL": 0.02}
